Examples of compounds with documented residual activity follow.
assayed system: DSTYK (human)
assay: radiometric filter-binding kinase assay, Kinase HotSpot
applied conditions: compound 0.5 µM; ATP 10 µM
Answer with a number only, understood to be in %.

> print(dat)
                                 compound  reported.measurement
1  Clc1ccc(Nc2nnc(Cc3ccncc3)c3ccccc23)cc1                  96.5

Quote DSTYK (human) residual activity for entry CS(=O)c1ccc(-c2nc(-c3ccc(F)cc3)c(-c3ccncc3)[nH]2)cc1 (centres undefined) . 100

Please report residual activity with DSTYK (human) for item CC(C)[C@H](CO)Nc1nc(Nc2cccc(Cl)c2)c2ncn(C(C)C)c2n1 . 105

Name the recorded residual activity of Nc1n[nH]c2nnc(-c3c(-c4ccccc4)nn4ccccc34)cc12 , assay system DSTYK (human). 95.9
